These data points were gathered from patent US20230167101A1.

target_or_test_system: human CBP HAT (Homo sapiens)
Sequence (Q92793 1323-1700 limits assumed): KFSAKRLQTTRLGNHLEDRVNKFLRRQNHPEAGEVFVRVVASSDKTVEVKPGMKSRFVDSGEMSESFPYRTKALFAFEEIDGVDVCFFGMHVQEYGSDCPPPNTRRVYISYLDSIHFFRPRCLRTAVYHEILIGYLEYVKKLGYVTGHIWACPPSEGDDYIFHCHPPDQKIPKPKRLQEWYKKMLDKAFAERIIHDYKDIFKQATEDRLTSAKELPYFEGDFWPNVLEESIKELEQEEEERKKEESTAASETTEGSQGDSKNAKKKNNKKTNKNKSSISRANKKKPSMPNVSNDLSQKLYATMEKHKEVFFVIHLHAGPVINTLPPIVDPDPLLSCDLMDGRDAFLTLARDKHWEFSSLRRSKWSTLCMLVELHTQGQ
metric: IC50 (nM)
Kindly answer with a numeric value in nM, unit omitted.

input: Query the reported IC50 for human CBP HAT (Homo sapiens); item: CC(C)(C)c1ccc(-c2cc(CNCC3CCNCC3)sc2-c2ccc(C(C)(C)C)cc2)cc1
output: 1200

###

target_or_test_system: HAT domain of human p300 (Homo sapiens, UniProt Q09472)
Construct: The HAT domain (1195-1673) of human p300 was cloned, inserted into pGEX-KG vector; made in house; host or cells: E. coli BL21-CodonPlus
Sequence (Q09472 1195-1673): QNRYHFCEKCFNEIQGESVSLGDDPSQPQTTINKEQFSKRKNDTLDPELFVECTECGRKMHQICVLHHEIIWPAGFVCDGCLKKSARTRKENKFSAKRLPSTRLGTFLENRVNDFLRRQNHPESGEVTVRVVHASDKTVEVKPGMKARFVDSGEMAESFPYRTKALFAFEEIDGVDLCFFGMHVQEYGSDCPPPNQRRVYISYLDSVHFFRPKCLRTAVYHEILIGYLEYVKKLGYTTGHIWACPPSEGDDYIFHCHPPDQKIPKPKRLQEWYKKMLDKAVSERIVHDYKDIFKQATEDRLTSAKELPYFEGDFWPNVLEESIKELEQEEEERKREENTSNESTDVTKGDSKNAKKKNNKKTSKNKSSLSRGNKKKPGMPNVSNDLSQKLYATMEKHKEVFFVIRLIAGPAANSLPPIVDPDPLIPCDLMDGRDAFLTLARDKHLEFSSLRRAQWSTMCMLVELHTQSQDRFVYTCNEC
protocol_description: p300 HAT inhibition assay (3H-Ac-CoA, histone H3 (1-21) peptide)
Type: biochemical
particulars: read-out: IC50 against p300 HAT
So basically, if IC50 comes in under 4 µM it's TRUE, and if it's 4 µM or more it's FALSE.

// below: answered compounds
mol_smiles	assigned_category
CC(C)(C)c1ccc(-c2cc(C(=O)NCC3CCNCC3)sc2-c2ccc(C(C)(C)C)cc2)cc1	FALSE
CC(C)(C)c1ccc(-c2cc(CNCCC3CCNCC3)sc2-c2ccc(C(C)(C)C)cc2)cc1	TRUE
CC(C)c1ccc(-c2cc(CNCC3CCNCC3)sc2-c2ccc(C(C)C)cc2)cc1	FALSE
CN(Cc1cc(-c2ccc(C(C)(C)C)cc2)c(-c2ccc(C(C)(C)C)cc2)s1)CC1CCNCC1	FALSE

# next compound below
input: Lab log: compare recorded IC50 with 4 µM; is it strictly lower for CC(C)(C)c1ccc(-c2cc(CN(C=O)CC3CCNCC3)sc2-c2ccc(C(C)(C)C)cc2)cc1 ?
output: FALSE
